# Tested on: RXF 393
# ASSAY: NCI tumour cell line growth inhibition, 48 h
Active and inactive are the calls of the source. Rule as the data show it: active = GI50 up to about 1.1 µM and inactive = higher.
Outcomes: T (active), F (inactive)

1) CN(C)CCC(CCN(C)C)=NO
F
2) CCCNc1ncnc2c1ncn2C
F
3) COc1cc(CNC(=O)[C@H](Cc2ccc(O)cn2)NC(C)=O)cc(OC)c1
F
4) O=C1c2c(Br)sc(Br)c2C(NC(=O)C(F)(F)F)C1O (centres undefined)
F
5) CCOC(=O)CCCn1nnc(C(=O)OCC)c1C(=O)OCC
F
6) COc1ccc(/C=C2\CCC(C)c3c2nc(N)c(C#N)c3-c2ccc(OC)c(OC)c2)cc1OC (centres undefined)
F
7) CC(=O)OC1c2ccccc2CCCCCCC12OCCO2 (centres undefined)
F
8) Cc1ccc2ccc(-c3ccccc3)c3c2c1C(=O)c1ccccc1C3=O
F
9) CC(=O)O[C@H]1CCC2[C@@H]3CCC4=C(O)c5nocc5C[C@]4(C)C3CC[C@@]21C (some centres undefined)
F
10) CC1(C)SCc2nc3ccccc3n21
F
11) Clc1ccc(-c2cn3c(nc4ccccc43)c(/C=C/c3cccs3)n2)cc1
F
12) S=C(Nc1ccc2c(c1)oc1ccccc12)c1cccs1
F
13) COc1ccc([S+]([O-])Cc2cc(OC)c(OC)c(OC)c2)cc1 (centres undefined)
F
14) CCN(CC)CCn1ncc2ccc3c(c(=O)c4cccnc4n3CCN(CC)CC)c21
T
15) COc1ccc2c(c1)C/C(=C\c1cccc3ccccc13)C2=O
T
16) Nc1n2nc(-c3ccccc3)sc2n[n+]1CC(=O)c1ccccc1
F
17) CC(=O)/N=C1\C=C(NC(C)=O)C(=O)c2ccccc21
F
18) Cc1cc(NS(=O)(=O)c2ccc(Nc3c4ccccc4nc4c(C(=O)N5CCN(CCO)CC5)cccc34)cc2)no1
F
19) Cc1cc(C)c2c(c1)C(=O)/C(=C/c1ccccc1C(=O)O)C2
F
20) COc1ccc(/C=C/NC=O)cc1
F
21) CCOC(=O)C1Sc2ccccc2N=C1C (centres undefined)
F
22) CC(=O)OC1=C(c2ccccc2)S(=O)(=O)c2ccccc21
F
23) CC(=O)/C(=C/n1c(=S)[nH]c2ccccc21)C(=O)Nc1ccccc1C
F
24) COC(=O)c1ccccc1C#CCCCOS(C)(=O)=O
F

Origin of measurements: ChEMBL document CHEMBL1201862
